Ref: paper PMC6407587

System: LPS-induced NO production in macrophage RAW 264.7 cells (iNOS)
Assay: Inhibition of LPS-induced NO production in RAW 264.7 macrophages (Griess reaction, measure of iNOS activity);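 also: cells pretreated with compound for 2 h, then stimulated 24 h with LPS at 500 ng/ml, supernatant nitrite quantified by absorbance at 550 nm against a nitrite standard curve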
Type: cell-based
Settings: 50 µM compound; LPS-stimulated RAW264.7 cells
Measure name: Inhibition of NO production at 50 µM (%)

compound_structure_string=O=C1c2c(O)cc(O)cc2O[C@H](c2ccc(O)cc2)[C@H]1O[C@@H]1O[C@H](CO)[C@@H](O)[C@H](O)[C@H]1O result=N.I
compound_structure_string=COC(=O)[C@@]1(O)C[C@@H](O)[C@H](O)[C@H](OC(=O)/C=C/c2ccc(O)c(O)c2)C1 result=N.I
compound_structure_string=O=C(/C=C\c1ccc(O)cc1)O[C@@H]1C[C@@](O)(C(=O)O)C[C@@H](O)[C@@H]1O result=N.I
